Values from patent US9073864B2

# test.target: human type glucagon receptor (Homo sapiens, UniProt P47871)
# Construct: an about 1.4 kb DNA fragment containing glucagon receptor gene was recovered from the gel; expressed in transfected cells; host or cells: FreeStyle CHO cells (transient expression); membrane fraction prepared by homogenisation and ultracentrifugation
# Sequence (P47871 26-477): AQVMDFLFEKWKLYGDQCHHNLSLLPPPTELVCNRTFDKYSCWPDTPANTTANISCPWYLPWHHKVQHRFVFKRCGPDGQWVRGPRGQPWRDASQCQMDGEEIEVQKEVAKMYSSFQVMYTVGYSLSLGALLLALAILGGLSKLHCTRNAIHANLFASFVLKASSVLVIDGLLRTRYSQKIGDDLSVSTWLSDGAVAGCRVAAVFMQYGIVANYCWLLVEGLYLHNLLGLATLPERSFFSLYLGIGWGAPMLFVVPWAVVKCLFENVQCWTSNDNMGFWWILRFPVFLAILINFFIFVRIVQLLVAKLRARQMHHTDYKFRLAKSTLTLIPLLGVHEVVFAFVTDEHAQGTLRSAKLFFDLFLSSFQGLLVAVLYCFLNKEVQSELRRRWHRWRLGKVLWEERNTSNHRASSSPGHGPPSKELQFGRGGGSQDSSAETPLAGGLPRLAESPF
# assay.overview: Measurement of glucagon binding inhibitory activity ([125I]-glucagon, receptor membrane protein)
# assay.conditions: test compound 10 μM; 0.4% DMSO alone = 0%, unlabeled glucagon 1 μM = 100%; read-out: inhibitory rate (%) at 10 μM

{"compound": "CCc1cnc(-c2ccc(C(CCC(F)(F)F)Nc3ccc(C(=O)N4CCC[C@@H](C(=O)O)C4)cc3)c(C)c2)nc1 (stereo partly shown) [Example 4]", "inhibition at 10 µM (%)": 95}
{"compound": "Cc1cc(C(CCC(F)(F)F)Nc2ccc(C(=O)N3CCC[C@@H](C(=O)O)C3)cc2)cc(C)c1-c1ccc(Cl)cc1 (stereo partly shown)", "inhibition at 10 µM (%)": 86}
{"compound": "Cc1cc(-n2cc3c(n2)CCCC3)ccc1C(Nc1ccc(C(=O)N2CCC[C@@H](C(=O)O)C2)cc1)C(C)C (stereo partly shown) [Example 117]", "inhibition at 10 µM (%)": 90}
{"compound": "Cc1cc(-c2ccc(C(F)(F)F)cn2)ccc1C(Nc1ccc(C(=O)N2CCC[C@@H](C(=O)O)C2)cc1)C(C)C (stereo partly shown)", "inhibition at 10 µM (%)": 88}

* * *

# test.target: human type glucagon receptor (Homo sapiens)
# Construct: an about 1.4 kb DNA fragment containing glucagon receptor gene was recovered from the gel; expressed in transfected cells; host or cells: FreeStyle CHO cells (transient expression); membrane fraction prepared by homogenisation and ultracentrifugation
# assay.overview: Measurement of glucagon binding inhibitory activity ([125I]-glucagon, receptor membrane protein)
# assay.conditions: test compound 10 μM; 0.4% DMSO alone = 0%, unlabeled glucagon 1 μM = 100%; read-out: inhibitory rate (%) at 10 μM
# inhibition at 10 µM listing for each entry below
measure: inhibition at 10 µM (%)

{"compound": "Cc1cc(-n2cc3c(n2)CCCC3)ccc1C(CCC(F)(F)F)Nc1ccc(C(=O)N2CCC[C@@H](C(=O)O)C2)cc1 (mixture of isomers) [Example 20]", "recorded.number": 93}
{"compound": "Cc1cc(-c2ccc(F)cc2)ccc1C(CCC(F)(F)F)Nc1ccc(C(=O)N2CCC[C@@H](C(=O)O)C2)cn1 (some centres unmarked)", "recorded.number": 85}
{"compound": "Cc1cc(-n2cc3c(n2)CCCC3)ccc1C(Nc1ccc(C(=O)N2CCC[C@@H](C(=O)O)C2)cc1)C(C)C (mixture of isomers) [Example 116]", "recorded.number": 90}
{"compound": "Cc1cc(-c2ccc(C(F)(F)F)nc2)ccc1C(CCC(F)(F)F)Nc1ccc(C(=O)N2CCC[C@@H](C(=O)O)C2)cc1 (mixture of isomers) [Example 9]", "recorded.number": 90}
{"compound": "Cc1cc(-n2ccc(C(C)C)n2)ccc1C(CCC(F)(F)F)Nc1ccc(C(=O)N2CCC[C@@H](C(=O)O)C2)cc1 (mixture of isomers) [Example 19]", "recorded.number": 87}
{"compound": "Cc1cc(-n2ccc(C(C)C)n2)ccc1C(CCC(F)(F)F)Nc1ccc(C(=O)N2CCC[C@@H](C(=O)O)C2)cc1 (some centres unmarked) [Example 22]", "recorded.number": 89}
{"compound": "Cc1cc(-c2ccc(Cl)cc2)ccc1C(Nc1ccc(C(=O)N2CCC[C@@H](C(=O)O)C2)cc1)C1CCCCC1 (some centres unmarked)", "recorded.number": 93}
{"compound": "Cc1cc(-c2ccc(C#N)cc2)ccc1C(CCC(F)(F)F)Nc1ccc(C(=O)N2CCC[C@@H](C(=O)O)C2)cc1 (some centres unmarked)", "recorded.number": 91}
{"compound": "COc1ccc(-c2ccc(C(CCC(F)(F)F)Nc3ccc(C(=O)N4CCC[C@@H](C(=O)O)C4)cc3)c(C)c2)cc1 (some centres unmarked)", "recorded.number": 91}
{"compound": "Cc1cc(-c2ccc(F)cc2)ccc1C(CCC(F)(F)F)Nc1ccc(C(=O)N2CCC[C@@H](C(=O)O)C2)cc1 (some centres unmarked)", "recorded.number": 86}
{"compound": "O=C(O)[C@@H]1CCCN(C(=O)c2ccc(NC(c3ccc(-c4ccc(Cl)cc4)cc3)C3CCCCC3)cc2)C1 (some centres unmarked)", "recorded.number": 84}
{"compound": "Cc1cc(-c2ccc(Cl)cc2)ccc1C(Nc1ccc(C(=O)N2CCC[C@@H](C(=O)O)C2)cn1)C1CCCCC1 (some centres unmarked)", "recorded.number": 92}
{"compound": "Cc1cc(-c2ccc(C(F)(F)F)nc2)ccc1C(CCC(F)(F)F)Nc1ccc(C(=O)N2CCC[C@@H](C(=O)O)C2)cc1 (some centres unmarked) [Example 14]", "recorded.number": 88}
{"compound": "O=C(O)[C@@H]1CCCN(C(=O)c2ccc(NC(CCC(F)(F)F)c3ccc(-c4ccccc4)cn3)cc2)C1 (some centres unmarked)", "recorded.number": 71}
{"compound": "Cc1cc(-c2ncc(C(F)(F)F)cn2)ccc1C(CCC(F)(F)F)Nc1ccc(C(=O)N2CCC[C@@H](C(=O)O)C2)cc1 (mixture of isomers) [Example 11]", "recorded.number": 93}
{"compound": "O=C(O)[C@@H]1CCCN(C(=O)c2ccc(NC(CCC(F)(F)F)c3ccc(-c4ccc(Cl)cc4)cc3)cc2)C1 (some centres unmarked)", "recorded.number": 86}
{"compound": "Cc1cc(-c2ncc(C(F)(F)F)cn2)ccc1C(CCC(F)(F)F)Nc1ccc(C(=O)N2CCC[C@@H](C(=O)O)C2)cc1 (some centres unmarked) [Example 3]", "recorded.number": 91}
{"compound": "Cc1cc(-c2ncc(Cl)cn2)ccc1C(CCC(F)(F)F)Nc1ccc(C(=O)N2CCC[C@@H](C(=O)O)C2)cc1 (mixture of isomers) [Example 12]", "recorded.number": 96}
{"compound": "O=C(O)[C@@H]1CCCN(C(=O)c2ccc(NC(CCC(F)(F)F)c3ccc(-c4ccc(Cl)cc4)cc3)nc2)C1 (some centres unmarked)", "recorded.number": 98}
{"compound": "Cc1cc(-c2ncc(C(C)(C)C)o2)ccc1C(CCC(F)(F)F)Nc1ccc(C(=O)N2CCC[C@@H](C(=O)O)C2)cc1 (some centres unmarked)", "recorded.number": 90}

* * *

# test.target: human type glucagon receptor (Homo sapiens)
# Construct: an about 1.4 kb DNA fragment containing glucagon receptor gene was recovered from the gel; expressed in transfected cells; host or cells: FreeStyle CHO cells (transient expression); membrane fraction prepared by homogenisation and ultracentrifugation
# assay.overview: Measurement of glucagon binding inhibitory activity ([125I]-glucagon, receptor membrane protein)
# assay.conditions: test compound 10 μM; 0.4% DMSO alone = 0%, unlabeled glucagon 1 μM = 100%; read-out: inhibitory rate (%) at 10 μM
# reported inhibition at 10 µM; entries follow

{"compound": "Cc1cc(-c2ccc(C(F)(F)F)cn2)ccc1C(CCC(F)(F)F)Nc1ccc(C(=O)N2CCC[C@@H](C(=O)O)C2)cc1 (stereo partly shown) [Example 1]", "inhibition at 10 µM [%]": 84}
{"compound": "Cc1cc(-c2ccc(C(F)(F)F)cn2)ccc1C(CCC(F)(F)F)Nc1ccc(C(=O)N2CCC[C@@H](C(=O)O)C2)cc1 (mixture of isomers) [Example 10]", "inhibition at 10 µM [%]": 88}
{"compound": "Cc1cc(-c2ncc(Cl)cn2)ccc1C(CCC(F)(F)F)Nc1ccc(C(=O)N2CCC[C@@H](C(=O)O)C2)cc1 (stereo partly shown) [Example 2]", "inhibition at 10 µM [%]": 92}
{"compound": "Cc1cc(-n2cc3c(n2)CCCC3)ccc1C(CCC(F)(F)F)Nc1ccc(C(=O)N2CCC[C@@H](C(=O)O)C2)cc1 (stereo partly shown) [Example 21]", "inhibition at 10 µM [%]": 90}
{"compound": "CCc1cnc(-c2ccc(C(CCC(F)(F)F)Nc3ccc(C(=O)N4CCC[C@@H](C(=O)O)C4)cc3)c(C)c2)nc1 (mixture of isomers) [Example 13]", "inhibition at 10 µM [%]": 84}
{"compound": "Cc1cc(-c2ccc(Cl)cc2)ccc1C(CCC(F)(F)F)Nc1ccc(C(=O)N2CCC[C@@H](C(=O)O)C2)cn1 (stereo partly shown) [Example 15]", "inhibition at 10 µM [%]": 92}
{"compound": "CCc1cnc(-c2ccc(C(Nc3ccc(C(=O)N4CCC[C@@H](C(=O)O)C4)cc3)C(C)C)c(C)c2)nc1 (stereo partly shown) [Example 112]", "inhibition at 10 µM [%]": 90}
